Form field: Ratio IC50 (one value per entry).
# assay.remarks: Selectivity ratio of IC50 for inhibition of human cytoplasmic ribosome Cyt 14 hybridized with Mycobacterium smegmatis ribosomes to IC50 for inhibition of Mycobacterium smegmatis wild type ribosomes

{"columns": ["sample.smiles", "Ratio IC50"],
 "data": [
  ["C[C@@H]1C[C@@H](O)[C@H]2O[C@H](O[C@H]3[C@H](O[C@@H]4O[C@H](CO)[C@@H](O[C@H]5O[C@@H](CN)[C@@H](O)[C@H](O)[C@H]5N)[C@H]4O)[C@@H](O)[C@H](N)C[C@@H]3N)[C@H](N)[C@@H](O)[C@@H]2O1", 299],
  ["NC[C@@H]1O[C@H](O[C@H]2[C@@H](O)[C@H](O[C@@H]3[C@@H](O)[C@H](N)C[C@H](N)[C@H]3O[C@H]3O[C@H]4[C@@H](OC[C@@H]4O)[C@H](O)[C@H]3N)O[C@@H]2CO)[C@H](N)[C@@H](O)[C@@H]1O", 250],
  ["NC[C@@H]1O[C@H](O[C@H]2[C@@H](O)[C@H](O[C@@H]3[C@@H](O)[C@H](N)C[C@H](N)[C@H]3O[C@H]3O[C@H]4[C@@H](OCC[C@@H]4O)[C@H](O)[C@H]3N)O[C@@H]2CO)[C@H](N)[C@@H](O)[C@@H]1O", 1000],
  ["NC[C@@H]1O[C@H](O[C@H]2[C@@H](O)[C@H](O[C@@H]3[C@@H](O)[C@H](N)C[C@H](N)[C@H]3O[C@H]3O[C@H]4[C@@H](OCCC[C@@H]4O)[C@H](O)[C@H]3N)O[C@@H]2CO)[C@H](N)[C@@H](O)[C@@H]1O", 789],
  ["C[C@@H]1C[C@H](O)[C@H]2O[C@H](O[C@H]3[C@H](O[C@@H]4O[C@H](CO)[C@@H](O[C@H]5O[C@@H](CN)[C@@H](O)[C@H](O)[C@H]5N)[C@H]4O)[C@@H](O)[C@H](N)C[C@@H]3N)[C@H](N)[C@@H](O)[C@@H]2O1", 540],
  ["NC[C@@H]1O[C@H](O[C@H]2[C@@H](O)[C@H](O[C@@H]3[C@@H](O)[C@H](N)C[C@H](N)[C@H]3O[C@H]3O[C@H]4[C@@H](OC[C@H]4O)[C@H](O)[C@H]3N)O[C@@H]2CO)[C@H](N)[C@@H](O)[C@@H]1O", 1380],
  ["NC[C@@H]1O[C@H](O[C@H]2[C@@H](O)[C@H](O[C@@H]3[C@@H](O)[C@H](N)C[C@H](N)[C@H]3O[C@H]3O[C@H](CO)[C@@H](O)[C@H](O)[C@H]3N)O[C@@H]2CO)[C@H](N)[C@@H](O)[C@@H]1O", 1120],
  ["NC[C@@H]1O[C@H](O[C@H]2[C@@H](O)[C@H](O[C@@H]3[C@@H](O)[C@H](N)C[C@H](N)[C@H]3O[C@H]3O[C@H]4[C@@H](OCC[C@H]4O)[C@H](O)[C@H]3N)O[C@@H]2CO)[C@H](N)[C@@H](O)[C@@H]1O", 169]
]}

---

# Tested on: Enterobacter cloacae
# assay.remarks: Antibacterial activity against Enterobacter cloacae AG290
# Type: functional

{"columns": ["sample.smiles", "MIC (µg/mL)"],
 "data": [
  ["NC[C@@H]1O[C@H](O[C@H]2[C@@H](O)[C@H](O[C@@H]3[C@@H](O)[C@H](N)C[C@H](N)[C@H]3O[C@H]3O[C@H]4[C@@H](OC[C@@H]4O)[C@H](O)[C@H]3N)O[C@@H]2CO)[C@H](N)[C@@H](O)[C@@H]1O", 32],
  ["NC[C@@H]1O[C@H](O[C@H]2[C@@H](O)[C@H](O[C@@H]3[C@@H](O)[C@H](N)C[C@H](N)[C@H]3O[C@H]3O[C@H]4[C@@H](OCCC[C@H]4O)[C@H](O)[C@H]3N)O[C@@H]2CO)[C@H](N)[C@@H](O)[C@@H]1O", 32],
  ["NC[C@@H]1O[C@H](O[C@H]2[C@@H](O)[C@H](O[C@@H]3[C@@H](O)[C@H](N)C[C@H](N)[C@H]3O[C@H]3O[C@H]4[C@@H](OCCC[C@@H]4O)[C@H](O)[C@H]3N)O[C@@H]2CO)[C@H](N)[C@@H](O)[C@@H]1O", 2]
]}

---

# assay.remarks: Inhibition of human cytoplasmic ribosome Cyt 14 hybridized with Mycobacterium smegmatis ribosome assessed as inhibition of translation activity using Firefly luciferase mRNA reporter based luminescence analysis
pIC50: −log10 of the molar value.

{"columns": ["sample.smiles", "pIC50"],
 "data": [
  ["C[C@@H]1C[C@H](O)[C@H]2O[C@H](O[C@H]3[C@H](O[C@@H]4O[C@H](CO)[C@@H](O[C@H]5O[C@@H](CN)[C@@H](O)[C@H](O)[C@H]5N)[C@H]4O)[C@@H](O)[C@H](N)C[C@@H]3N)[C@H](N)[C@@H](O)[C@@H]2O1", 4.47],
  ["C[C@@H]1C[C@@H](O)[C@H]2O[C@H](O[C@H]3[C@H](O[C@@H]4O[C@H](CO)[C@@H](O[C@H]5O[C@@H](CN)[C@@H](O)[C@H](O)[C@H]5N)[C@H]4O)[C@@H](O)[C@H](N)C[C@@H]3N)[C@H](N)[C@@H](O)[C@@H]2O1", 3.58],
  ["NC[C@@H]1O[C@H](O[C@H]2[C@@H](O)[C@H](O[C@@H]3[C@@H](O)[C@H](N)C[C@H](N)[C@H]3O[C@H]3O[C@H]4[C@@H](OCCC[C@@H]4O)[C@H](O)[C@H]3N)O[C@@H]2CO)[C@H](N)[C@@H](O)[C@@H]1O", 4.25],
  ["NC[C@@H]1O[C@H](O[C@H]2[C@@H](O)[C@H](O[C@@H]3[C@@H](O)[C@H](N)C[C@H](N)[C@H]3O[C@H]3O[C@H](CO)[C@@H](O)[C@H](O)[C@H]3N)O[C@@H]2CO)[C@H](N)[C@@H](O)[C@@H]1O", 4.43]
]}

---

Form field: pIC50 (one value per entry).
# assay.remarks: Inhibition of human mitochondrial ribosome Mit 13 A1555G mutant hybridized with Mycobacterium smegmatis ribosome assessed as inhibition of translation activity using Firefly luciferase mRNA reporter based luminescence analysis
pIC50: −log10 of the molar value.

{"columns": ["sample.smiles", "pIC50"],
 "data": [
  ["C[C@@H]1C[C@H](O)[C@H]2O[C@H](O[C@H]3[C@H](O[C@@H]4O[C@H](CO)[C@@H](O[C@H]5O[C@@H](CN)[C@@H](O)[C@H](O)[C@H]5N)[C@H]4O)[C@@H](O)[C@H](N)C[C@@H]3N)[C@H](N)[C@@H](O)[C@@H]2O1", 4.70],
  ["NC[C@@H]1O[C@H](O[C@H]2[C@@H](O)[C@H](O[C@@H]3[C@@H](O)[C@H](N)C[C@H](N)[C@H]3O[C@H]3O[C@H]4[C@@H](OCC[C@@H]4O)[C@H](O)[C@H]3N)O[C@@H]2CO)[C@H](N)[C@@H](O)[C@@H]1O", 3.88],
  ["NC[C@@H]1O[C@H](O[C@H]2[C@@H](O)[C@H](O[C@@H]3[C@@H](O)[C@H](N)C[C@H](N)[C@H]3O[C@H]3O[C@H]4[C@@H](OCCC[C@@H]4O)[C@H](O)[C@H]3N)O[C@@H]2CO)[C@H](N)[C@@H](O)[C@@H]1O", 4.38],
  ["NC[C@@H]1O[C@H](O[C@H]2[C@@H](O)[C@H](O[C@@H]3[C@@H](O)[C@H](N)C[C@H](N)[C@H]3O[C@H]3O[C@H]4[C@@H](OCC[C@H]4O)[C@H](O)[C@H]3N)O[C@@H]2CO)[C@H](N)[C@@H](O)[C@@H]1O", 3.22],
  ["NC[C@@H]1O[C@H](O[C@H]2[C@@H](O)[C@H](O[C@@H]3[C@@H](O)[C@H](N)C[C@H](N)[C@H]3O[C@H]3O[C@H]4[C@@H](OCCC[C@H]4O)[C@H](O)[C@H]3N)O[C@@H]2CO)[C@H](N)[C@@H](O)[C@@H]1O", 3.26],
  ["C[C@@H]1C[C@@H](O)[C@H]2O[C@H](O[C@H]3[C@H](O[C@@H]4O[C@H](CO)[C@@H](O[C@H]5O[C@@H](CN)[C@@H](O)[C@H](O)[C@H]5N)[C@H]4O)[C@@H](O)[C@H](N)C[C@@H]3N)[C@H](N)[C@@H](O)[C@@H]2O1", 3.49],
  ["NC[C@@H]1O[C@H](O[C@H]2[C@@H](O)[C@H](O[C@@H]3[C@@H](O)[C@H](N)C[C@H](N)[C@H]3O[C@H]3O[C@H]4[C@@H](OC[C@H]4O)[C@H](O)[C@H]3N)O[C@@H]2CO)[C@H](N)[C@@H](O)[C@@H]1O", 3.93],
  ["NC[C@@H]1O[C@H](O[C@H]2[C@@H](O)[C@H](O[C@@H]3[C@@H](O)[C@H](N)C[C@H](N)[C@H]3O[C@H]3O[C@H](CO)[C@@H](O)[C@H](O)[C@H]3N)O[C@@H]2CO)[C@H](N)[C@@H](O)[C@@H]1O", 4.92]
]}
